The measured values listed here are drawn from the RNAGym collection of RNA variant scans (doi:10.7554/elife.90254).

B1: LINE1-mini (parent)
chain: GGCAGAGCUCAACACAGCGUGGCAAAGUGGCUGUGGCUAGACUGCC

Variants of: B1
TEST_DETAILS: self-cleavage, relative activity (ratio to wild type); higher = more cleavage; in vitro, sequencing; the parent is a self-cleaving ribozyme
QUANTITY_MEASURED: self-cleavage
A bare number is all that is needed in reply.

As a guide, the following entries are already answered.
# VAR, self-cleavage
measured = [
    ("G40U U43A", 0.08),
    ("C3A U20A", 0.38),
    ("G29U G44C", 0.44),
    ("G7C G44U", 0.15),
]

Sure, the documented self-cleavage for C31U C37G is 0.05

For C15G C46G the variant record lists self-cleavage as 0.03

self-cleavage measured on U9C A26U = 0.11

Reported self-cleavage for G33U C46G was 0.07

Recorded result, U28C G33U , self-cleavage: 0.08

Given item A25U C46U , the value recorded as its self-cleavage is 1.04
